- Protocol: protease stability score; higher = more stable; yeast display proteolysis, trypsin and chymotrypsin;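 also: relative to predicted unfolded state with 0 unfolded-like and 1 meaning tenfold more protease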
Respond with satisfied for protease stability score values of 1 and above, not satisfied for values below.

Biopolymer sequence | Classification
DEHEEHWREMFERWLFALITGDEETLHKLLDPNVKMDINGQHHVGREQVLHEFRKFHDVLGVKVSRNFHVKDKEVQGDKLHLTIEFRGEFNGKEEITQARIVIVKINGRWTIERVELE | satisfied
DEEKKEQRHFLKKLADSIATGDEESLEKMVDPNAKSVVNGVEQHGMELMVENLREWLERLGVTKISFHEKRFRLIGNKLEVDGTIEVNGKKFESHFIVEKVDGQWRIREIRLH | not satisfied
TEEDEELKRWFDHFLESMITGDEHQNTELFDPNVLIHINGRQLHGRESAKIFIKEIRYEEIEVTHVRKYGNYVISSGVVRVRINGQESTIKTEVIVLKVNGQWLIRFVRFE | satisfied
DEDTNLLREFVRLLSEALKTGDEDTLRTLFDPHVRFIIGDKDLVGREAFHFFLERFDVIRSVELHNYDHYGDKVTLDTRQVIHVNGQDIRIHSHIVVTKVNGRWRLESVKFK | satisfied
HEHDQKSNKMSEILMELWKTGNEDWMDKLVDPNARTDIEVGDKRIENVGMEELHKWLFDHHRRIKGIKIIHRTMEVVGDKVTLHLELRFNGVRVEIIIRLIVIDGRVHSQHYEVRTE | not satisfied
SEEEERLRENLERWHRALYTGDEEHLFNLADPHARFEIIVDGRDVRIHGRENYLRWVEEFRKELGISRVHTELKSEHVINGRNDEDGLVHINGRSLRVHFHLDVVDGRTKKIHIYVR | not satisfied
DEINKMLKEVLDRYTEAIRTGDEDILLELLDPNTRVIINGQDKHGREYWYTWFAELLKRVDHQDVRFHEIRLQGDKVQVDVELIFNAENHHLHIRTDIIIEKFDGRWIITEFRMH | satisfied
DEDKKHALEMAEMLFELIWTGDEHMLKELMDPNTRLFFNGRETHGWEFLSRELIHLRHRSDFRIRDVRIIGDYLHVDGEFHTILNINGVDIELHLHMEIVLFKIDGRWVVHEIRFL | satisfied
DEELHHQERLLREFLHAEFTGDEDKLRHLADPRTRSDLEFENVEIVLHGMDEHVKWWEELGFKIDEMRISRIDVVGNFIILDTRVRGHINGQETHFEHHIIINTINGKIHSIRVHTK | not satisfied
SEEDEDAMRSAEFLVKKLNTGDEDWYQHLFDPHTKLEIGNFTSHGMHVSLKQWREMGADHVHVQDIDVFDGRVHVRTHIHVNGQTVEVLIILVKVNGRWIVERIRMK | not satisfied
DELERLAVETIHRFWHSLTTGNEKVLDELLDPNVRVHYNGKDIIGMEHFLKEISEIWRHVEDIKFTDNRVQGEKIRVHGHVDVKEEFDGRKIKIHTRVDYVVHKINGVWVVQSIKIH | satisfied
DEEKKDIKHWLEKWITDTRTGDEEEILKMLDPNVRTEQGEFELHGRDALKHYIDRFDHIHEVDLEVKHVTEQGDKLHIKGTLRMDGIVDGVRRTFYFRTILIVRKIDGRWAVSRVILL | satisfied
DEFEKTAEELLRRLVKNMKTGNEDMISHLLDPNARLEVGEFEYHGREQLVRFLVHLRVDHVDLHHVEVQGDKLILDTRTDGTFNGRRRNIRETIIIRKVNGKWIIESYHVE | satisfied
DELEKYVLDMVMLWIRSHSTGDEDALRRLADPHTRVIINGKELHGMDDVRRHIEEIRIHEEHVHVERVEIQGNKAIVDTSRHIWIDFNGQNIRVDVKTRFHLEKIDGVWYLKEVRIG | satisfied
LEEEEETKEMNDKMRHVMETGDEDSFRKLADPHVRVDINGREFHGMDNAAEIMSHLRIHKFHVHDTRNINGKVQVESRLTRIIDGKKQHVRTEWIIVKIDGQWIFREWIVK | not satisfied
DEDEEEMRRVVELLVRDHFTGNFEKLKDLFDPNAKSDVDGVSMVGREWLEFLKRYLGADHIEVRVRHEDYYGNKVHFHLEIISRYGDKEIHVDTEMVIDKVDGRWYVRETRFK | not satisfied
SEDERLMKKLWEDLIRDLITGDEDSMKRLADPNVLVEFENHKEHGRDLFSHLMFHARIKRIHTHEVEIQGDKAVYNVRIDGEINGQRHDYEREIYSFKVNGQWFIERVIIK | satisfied
DEDHRDAIFILRLFLHATETGDEDSLETLMDPHVKLEINGVRIHGRETTYILMRHWRFRIEHLEIRNFDVFNGRLELIGHRHTTINIDGREERHTVRLEVHIWKINGQWLVQHIHIH | satisfied
DEDEEMAHWAMEVLTKLIRTGDEDTILDMIDPHARIVYGDKTHHGREHFEKIIHELGVKVFEVHEIENQGEKVTIHGRQHVNGRTYDVKLFVQKVNGRWYIKRVHIK | satisfied
SESDEMAVEMLLRWVENLITGDEHTSQELLDPHVRIIFYIGDKEVHYHGWENAVEFWEEVVRRYDYFHIKFEEITVQGEKVRSKTRLTVIINGQEERYDTKLNAIVVNGRFKSVTIQYD | not satisfied
DEEKKKFEHWVKLVIHALLTGDEKHLNDMADPNVKVRSVFNGRHVELHGRENEHRWLEKLRKRLGVDHIEITDSVIQGDKVEIDSRYIQGDKEFKSSIHIVVVNGRTHENEFIFH | satisfied
